Biological target: Metabotropic glutamate receptor 8 (Rattus norvegicus) (UniProt P70579)
Sequence (P70579 whole entry, looked up): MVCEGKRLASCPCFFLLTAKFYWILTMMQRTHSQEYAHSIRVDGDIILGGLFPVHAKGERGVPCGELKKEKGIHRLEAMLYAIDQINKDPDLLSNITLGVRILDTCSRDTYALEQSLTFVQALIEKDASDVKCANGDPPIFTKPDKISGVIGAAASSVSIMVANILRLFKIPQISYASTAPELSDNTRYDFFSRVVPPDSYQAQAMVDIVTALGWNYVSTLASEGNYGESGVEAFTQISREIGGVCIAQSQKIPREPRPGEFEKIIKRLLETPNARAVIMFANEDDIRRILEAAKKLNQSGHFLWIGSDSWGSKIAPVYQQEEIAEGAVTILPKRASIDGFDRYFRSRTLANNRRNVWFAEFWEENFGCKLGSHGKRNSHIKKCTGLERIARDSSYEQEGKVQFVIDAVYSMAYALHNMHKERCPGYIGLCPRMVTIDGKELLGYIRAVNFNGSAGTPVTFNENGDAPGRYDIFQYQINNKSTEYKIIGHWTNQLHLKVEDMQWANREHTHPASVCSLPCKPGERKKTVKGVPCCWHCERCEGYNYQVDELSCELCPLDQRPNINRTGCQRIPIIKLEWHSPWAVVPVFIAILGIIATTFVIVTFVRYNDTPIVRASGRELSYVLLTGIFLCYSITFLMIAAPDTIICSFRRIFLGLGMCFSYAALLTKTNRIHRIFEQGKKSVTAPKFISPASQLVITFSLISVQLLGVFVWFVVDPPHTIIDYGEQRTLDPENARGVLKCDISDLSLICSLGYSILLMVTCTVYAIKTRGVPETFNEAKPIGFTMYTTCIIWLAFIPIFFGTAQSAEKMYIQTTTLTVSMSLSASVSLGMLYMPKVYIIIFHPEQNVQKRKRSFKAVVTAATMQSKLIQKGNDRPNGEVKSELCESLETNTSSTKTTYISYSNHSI
Test: mGluR8 Gi/Go-coupled signaling modulation – cell-based, rat, thallium flux, HTS, primary screen (AID 488969)
Details: HEK293 rat mGluR8, GIRK (G protein-gated inwardly rectifying potassium channel) thallium flux, FluoZin2; at 10 µM; stronger effect = higher value; submaximal glutamate (EC20) added with thallium
Whole data set: some 110,000 compounds, median “z-score” near -0.1, cut for the highest 2% near 2. Many of the other results were omitted from the sample, so the highest values are more common in it than they were.
Below, each entry is listed with its recorded z-score.

{"molecule": "O=C(CSc1nc(-c2ccccc2)c(-c2ccccc2)[nH]1)NCc1ccco1", "measuredOn": "Metabotropic glutamate receptor 8 (Rattus norvegicus) (UniProt P70579)", "z-score": -0.317}
{"molecule": "CCOC(=O)N1CCN(C(=O)CSc2ncnc3ccccc23)CC1", "measuredOn": "Metabotropic glutamate receptor 8 (Rattus norvegicus) (UniProt P70579)", "z-score": 3.04}
{"molecule": "CCCn1c(SC(C(=O)Nc2cc(C)ccc2OC)c2ccccc2)nc2ccccc2c1=O (stereo unspecified)", "measuredOn": "Metabotropic glutamate receptor 8 (Rattus norvegicus) (UniProt P70579)", "z-score": 3.61}
{"molecule": "CCCn1c(SC(C(=O)Nc2cccc(OC)c2)c2ccccc2)nc2ccccc2c1=O (stereo unspecified)", "measuredOn": "Metabotropic glutamate receptor 8 (Rattus norvegicus) (UniProt P70579)", "z-score": -0.276}
{"molecule": "COc1ccc2nc(NC(=O)CN3CCN(C)CC3)sc2c1", "measuredOn": "Metabotropic glutamate receptor 8 (Rattus norvegicus) (UniProt P70579)", "z-score": 0.194}
{"molecule": "CC12C(=O)N(c3cccc4cccnc34)C(=O)C1C1C=CC2C1 (stereo unspecified)", "measuredOn": "Metabotropic glutamate receptor 8 (Rattus norvegicus) (UniProt P70579)", "z-score": 0.818}
{"molecule": "O=C(CSc1ncnc2ccccc12)N1CCN(c2ccccc2)CC1", "measuredOn": "Metabotropic glutamate receptor 8 (Rattus norvegicus) (UniProt P70579)", "z-score": -0.0217}
{"molecule": "COc1ccc(-n2nnc3c(SCC(=O)Nc4ccc5c(c4)OCCO5)ncnc32)cc1", "measuredOn": "Metabotropic glutamate receptor 8 (Rattus norvegicus) (UniProt P70579)", "z-score": 0.658}
{"molecule": "C/C(CC(=O)Nc1cccc2c1CCCC2)=N\\NC(=O)c1cccc2ccccc12", "measuredOn": "Metabotropic glutamate receptor 8 (Rattus norvegicus) (UniProt P70579)", "z-score": -0.483}
{"molecule": "O=C(C1CCN(S(=O)(=O)c2cccc3cccnc23)CC1)N1CCn2c1nc1ccccc12", "measuredOn": "Metabotropic glutamate receptor 8 (Rattus norvegicus) (UniProt P70579)", "z-score": -0.522}
{"molecule": "CC(C)(C)C1CCC2(CC1)Nc1cccc3cccc(c13)N2", "measuredOn": "Metabotropic glutamate receptor 8 (Rattus norvegicus) (UniProt P70579)", "z-score": 4.88}
{"molecule": "Cc1nn2c([nH]c(=O)c3ccccc32)c1C=O", "measuredOn": "Metabotropic glutamate receptor 8 (Rattus norvegicus) (UniProt P70579)", "z-score": 0.184}
{"molecule": "CC(C)NC(=O)c1nc2ccccc2s1", "measuredOn": "Metabotropic glutamate receptor 8 (Rattus norvegicus) (UniProt P70579)", "z-score": 3.05}
{"molecule": "Cc1cc2[nH]c(=O)c3ccccc3n2n1", "measuredOn": "Metabotropic glutamate receptor 8 (Rattus norvegicus) (UniProt P70579)", "z-score": 4.8}
{"molecule": "CCNC(=S)NNC(=O)c1ccccc1Cl", "measuredOn": "Metabotropic glutamate receptor 8 (Rattus norvegicus) (UniProt P70579)", "z-score": -0.211}
{"molecule": "O=C(Nc1ccc(Cl)cn1)c1cccc(F)c1", "measuredOn": "Metabotropic glutamate receptor 8 (Rattus norvegicus) (UniProt P70579)", "z-score": 0.192}
{"molecule": "CCC(CC)C1C(C#N)=C(N)Oc2n[nH]c(-c3ccccc3)c21 (stereo unspecified)", "measuredOn": "Metabotropic glutamate receptor 8 (Rattus norvegicus) (UniProt P70579)", "z-score": -0.557}
{"molecule": "O=C(C1CCCN1S(=O)(=O)c1cccc2cccnc12)N1CCn2c1nc1ccccc12 (stereo unspecified)", "measuredOn": "Metabotropic glutamate receptor 8 (Rattus norvegicus) (UniProt P70579)", "z-score": 3.63}
{"molecule": "O=C(C1CCCN1S(=O)(=O)c1cccc2cccnc12)N1CCN(c2ccccc2)CC1 (stereo unspecified)", "measuredOn": "Metabotropic glutamate receptor 8 (Rattus norvegicus) (UniProt P70579)", "z-score": -0.0642}
{"molecule": "c1cc2c3c(cccc3c1)NC1(CCCCC1)N2", "measuredOn": "Metabotropic glutamate receptor 8 (Rattus norvegicus) (UniProt P70579)", "z-score": -0.436}
{"molecule": "O=C(CNC(=O)C12CC3CC(CC(C3)C1)C2)N1CCN(S(=O)(=O)c2cccs2)CC1", "measuredOn": "Metabotropic glutamate receptor 8 (Rattus norvegicus) (UniProt P70579)", "z-score": -0.178}
{"molecule": "COc1ccc(S(=O)(=O)N(CC(=O)N2CCN(C)CC2)c2ccc(C)cc2)cc1OC", "measuredOn": "Metabotropic glutamate receptor 8 (Rattus norvegicus) (UniProt P70579)", "z-score": 0.277}
{"molecule": "Cc1ccc(CC(=O)N2CCN(c3cccc(C(F)(F)F)c3)CC2)cc1", "measuredOn": "Metabotropic glutamate receptor 8 (Rattus norvegicus) (UniProt P70579)", "z-score": 6.97}
{"molecule": "O=C(O/N=C/c1ccc2c(c1)OCO2)c1ccccc1Cl", "measuredOn": "Metabotropic glutamate receptor 8 (Rattus norvegicus) (UniProt P70579)", "z-score": 0.0816}
{"molecule": "Cc1cccc(-n2c(-c3ccco3)nc3nc4ccccc4nc32)c1", "measuredOn": "Metabotropic glutamate receptor 8 (Rattus norvegicus) (UniProt P70579)", "z-score": -0.0341}
{"molecule": "CC(C)(C)NC(=O)c1nc2ccccc2s1", "measuredOn": "Metabotropic glutamate receptor 8 (Rattus norvegicus) (UniProt P70579)", "z-score": 0.283}
{"molecule": "O=c1cc(O)nc(SCc2ccccc2)n1-c1ccc(F)cc1", "measuredOn": "Metabotropic glutamate receptor 8 (Rattus norvegicus) (UniProt P70579)", "z-score": -0.305}
{"molecule": "O=C1C(=O)N(CCO)C(c2ccccc2)/C1=C(\\O)c1ccccc1 (stereo unspecified)", "measuredOn": "Metabotropic glutamate receptor 8 (Rattus norvegicus) (UniProt P70579)", "z-score": -0.284}
{"molecule": "Cc1ccc(-n2c(Cc3cccn3C)nnc2SCC(=O)Nc2cc(C)on2)cc1", "measuredOn": "Metabotropic glutamate receptor 8 (Rattus norvegicus) (UniProt P70579)", "z-score": -0.345}
{"molecule": "CCn1c2ccccc2c2cc(NC(=O)C/C(C)=N/NC(=O)c3ccccc3N)ccc21", "measuredOn": "Metabotropic glutamate receptor 8 (Rattus norvegicus) (UniProt P70579)", "z-score": -0.0756}
{"molecule": "O=C(CSc1cc(Cl)ccc1Cl)NCC1CCCO1 (stereo unspecified)", "measuredOn": "Metabotropic glutamate receptor 8 (Rattus norvegicus) (UniProt P70579)", "z-score": -0.0958}
{"molecule": "CNc1nc(CCN2C(=O)c3ccccc3C2=O)cs1", "measuredOn": "Metabotropic glutamate receptor 8 (Rattus norvegicus) (UniProt P70579)", "z-score": -0.0681}
{"molecule": "CC(C)(C)C1CCC2(CC1)NC(=S)N(c1ccccc1)N2 (stereo unspecified)", "measuredOn": "Metabotropic glutamate receptor 8 (Rattus norvegicus) (UniProt P70579)", "z-score": 0.0264}
{"molecule": "Cc1ccc(/C=C/C(=O)N2CCN(c3cccc(C(F)(F)F)c3)CC2)cc1", "measuredOn": "Metabotropic glutamate receptor 8 (Rattus norvegicus) (UniProt P70579)", "z-score": -0.0624}
{"molecule": "CC1CCCCC1n1c(=S)[nH]c2ccccc2c1=O (stereo unspecified)", "measuredOn": "Metabotropic glutamate receptor 8 (Rattus norvegicus) (UniProt P70579)", "z-score": 16.2}
{"molecule": "COc1ccc(C)cc1NC(=O)C(Sc1ccccc1)c1ccccc1 (stereo unspecified)", "measuredOn": "Metabotropic glutamate receptor 8 (Rattus norvegicus) (UniProt P70579)", "z-score": 0.296}
